# assay.procedure: Plasma concentrations (PK), Example 1
# Format: in vivo, human
# condition.label: human, plasma, oral, 50 mg, 50 mg QD; Week 8; Trough; read-out: Plasma concentration, Mean
quantity: level at 1344 h
// return the numeric value with its unit appended

INPUT: State, in one line, measured level at 1344 h of CC(=O)NCCCC[C@@H]1NC(=O)[C@H](Cc2c[nH]c3c(C)cccc23)NC(=O)[C@H]([C@@H](C)O)NC(=O)[C@H](CC(N)=O)NC(=O)[C@@H](NC(C)=O)C(C)(C)SSC(C)(C)[C@@H](C(=O)N[C@@H](Cc2ccc(OCCN)cc2)C(=O)N[C@@H](Cc2ccc3ccccc3c2)C(=O)NC2(C(=O)N[C@@H](CCC(=O)O)C(=O)N[C@@H](CC(N)=O)C(=O)N[C@@H](Cc3cccnc3)C(=O)N(C)CC(N)=O)CCOCC2)NC1=O [IL-23 receptor antagonist peptide]
OUTPUT: 0.147 ng/mL
